tested on: M14 melanoma; assay: NCI-60 one-dose screen, 48 h; conditions: 10 µM unless noted
This is part of a sample that, as a whole, favours compounds with a hit. Of some 83,000 tested, about 20% had one in any assay. Active and inactive are the calls of the source. Rule for the calls: active = growth percent below 10; inactive = the rest.
Pick one and only one: True = active, False = inactive

What was the test verdict on CC1=NNC(=O)C1C (centres undefined) ?
False

What was the test verdict on COc1cc2nc3cc([N+](=O)[O-])ccc3c(NCCCNCC(C)(C)O)c2cc1OC ?
True

What was the test verdict on CC/C=C\C[C@H](O)C/C=C1/C(=O)C=C[C@@H]1C/C=C\CCCC(N)=O ?
True

What was the test verdict on Nc1cc2ccncc2c2ccccc12 ?
False

What was the test verdict on CC[C@H](Nc1nc(N)nc(C)c1C#N)c1nc2cccc(NCc3ccc(C(=O)NO)cc3)c2c(=O)n1-c1ccccc1 ?
True

What was the test verdict on Nc1c(C(=O)Nc2cccc3c2OCCO3)sc2nc3c(cc12)CN(Cc1ccccc1)CC3 ?
False

What was the test verdict on COCCCN=C(N)c1ccc(NC(=O)c2ccc(C(=O)Nc3ccc(C(N)=NCCCOC)cc3)cc2)cc1 ?
False

What was the test verdict on O=c1ccc2cc3ccccc3cc2[nH]1 ?
False

What was the test verdict on CC[C@]12C=CCN3CC[C@@]4(c5ccc(OC)cc5N(C)[C@H]4[C@@](O)(C(=O)OC)[C@@H]1OC(=O)CCC(=O)N[C@@H](Cc1c[nH]c4ccccc14)C(=O)OC)[C@@H]32 ?
False

* * *

tested on: KM12 colon; test: NCI-60 one-dose screen, 48 h (100 = growth as untreated, 0 = no growth, -100 = all killed); conditions: 10 µM unless noted
About 83,000 compounds went through this panel and 20% of them were active in at least one assay; those are over-represented in the sample as a whole.
Recorded Metric: growth (%)
Dear colleague, please return just the value in %, with no unit written.

Would you kindly share the measured growth for O=C(CN1CCN(c2cc3c(cc2F)c(=O)c(C(=O)N/N=C/c2ccccc2)cn3C2CC2)CC1)N/N=C\c1ccccc1 ?
71.1

Would you kindly share the measured growth for O=C1C=CC(Nc2ccccc2[N+](=O)[O-])C1Nc1ccccc1[N+](=O)[O-] (centres undefined) ?
58.3

Would you kindly share the measured growth for Cc1ccc2c(NCCCN(C)C)c3c(C)nn(C)c3nc2c1 ?
32.8

Would you kindly share the measured growth for O=C(/C=C\c1ccc2ccccc2n1)c1cc(Cl)ccc1O ?
74.2

Would you kindly share the measured growth for COc1cc(-c2cc(-c3nc4ccc(Cl)cc4[nH]3)[nH]n2)cc(OC)c1OC ?
47

Would you kindly share the measured growth for O=c1[nH]c(-c2ccccn2)nc2sc3c(c12)CCCCC3 ?
39.4

Would you kindly share the measured growth for CC(=O)C1=C(O)C=C2Oc3c(C(=O)/C=C/c4cc(Cl)cc(Cl)c4)c(O)c(C)c(O)c3[C@]2(C)C1=O ?
-6.77

Would you kindly share the measured growth for COc1ccc(-c2cc(=O)[nH]c3c(OC)c4ccccc4c(OC)c23)cc1 ?
2.11

Would you kindly share the measured growth for COc1ccc(/C=C/C(=O)c2c(O)c(C)c(O)c3c2OC2=CC(O)=C(C(C)=O)C(=O)[C@]23C)cc1 ?
-4.07

* * *

Tested on: NCI-H322M lung
Assay: NCI-60 one-dose screen, 48 h
Details: 10 µM unless noted
Experimental: Growth inhibition of the NCI-H322M human Non-Small Cell Lung tumor cell line is measured as a screen for anti-cancer activity. Cells are grown in 96 well plates and exposed to the test compound for 48 hours. Compounds are tested at a single concentration, which is 10^-5 M for most compounds. The reported endpoint is percent growth (GI% or GIPRCNT), where numbers from 0 - 100% represent growth inhibition, and numbers from -100% - 0 represent cell death. […]
About 83,000 compounds went through this panel and 20% of them were active in at least one assay; those are over-represented in the sample as a whole. Calls of active or inactive are those of the source. Rule for the calls: active = growth percent below 10; inactive = the rest.
Pick one and only one: true for active, false for inactive

What was the test verdict on COc1cc(NCCCCCN=C(N)NC(N)=NC(C)C)c2ncccc2c1 ?
false

What was the test verdict on CC(=O)Oc1cc2cnc3c4cc(OC(C)=O)c(OC(C)=O)cc4ccc3c2cc1OC(C)=O ?
true

What was the test verdict on COc1ccc(CN(c2ccc(C)cc2)C2OC(=O)c3ccccc32)cc1OC (stereo not given) ?
false

What was the test verdict on O=[N+]([O-])c1cccc(-c2nc3sccn3c2-c2ccnc(NCCCNS(=O)(=O)c3cccc(F)c3)n2)c1 ?
false

What was the test verdict on CC/C(Cc1ccccc1)=C(\c1ccc(OCCN2CCCC2)cc1)c1ccc(OC(C)=O)cc1 ?
false

What was the test verdict on C/C=C/C(N)=O ?
false

What was the test verdict on COc1ccc(-c2nn(-c3ccccc3)cc2/C=C/C(=O)OCc2cn(-c3ccc(F)c(Cl)c3)nn2)cc1 ?
false

What was the test verdict on CCN(CC)CCCNc1cccc2c(SCc3ccccc3)ccnc12 ?
false

What was the test verdict on CCCCCCCCCCCCCCCCCCNC(=O)[C@H]1CSC(c2ccc(OC)c(F)c2)N1 (stereo not given in full) ?
false

What was the test verdict on COc1cc(C#N)cc(OC)c1OCCN(CCOc1c(OC)cc(C#N)cc1OC)S(=O)(=O)c1ccc(C)cc1 ?
false
